- Tested on: NCI-H226 lung
- Assay Comment: NCI-60 one-dose screen, 48 h (100 = growth as untreated, 0 = no growth, -100 = all killed)
- Particulars: 10 µM unless noted
Compounds without any hit were thinned out: in the full panel of roughly 83,000, 20% have a hit.
Here, each record is paired with measured growth data.
Unit % implied. Number only.

Worked cases, answers included:
{"Compound": "COc1ccc(/C=C/C(=O)c2cc(O)ccc2O)cc1", "Unit Descriptor": "%", "growth": 94.5}
{"Compound": "Clc1ccc2c(NCCNc3nc(N4CCOCC4)nc4ccccc34)ccnc2c1", "Unit Descriptor": "%", "growth": -22.5}
{"Compound": "COc1cc(C(=O)/C=C/c2cccnc2Nc2ccc(Cl)cc2)cc(OC)c1OC", "Unit Descriptor": "%", "growth": -82.7}
{"Compound": "O=C(/C=C/c1ccccc1)c1ccc(O)c(CN2CCN(c3cc4c(cc3F)c(=O)c(C(=O)O)cn4C3CC3)CC2)c1", "Unit Descriptor": "%", "growth": 40.4}
{"Compound": "Cc1ccc(NC(=O)C2CCC(CN3CCN(C)CC3)CC2)cc1Nc1nccc(-c2cccnc2)n1 (stereo not given)", "Unit Descriptor": "%", "growth": 99.8}

Incoming: # return growth of `CC(C)(C)c1cc(/C=N\NC(=O)/C=C/C=C/c2ccc3c(c2)OCO3)c(O)c(C(C)(C)C)c1` (system: NCI-H226 lung)
Outgoing: 75.9

Incoming: Param request: growth | system NCI-H226 lung | item `C(=C\c1nccc2c1[nH]c1ccccc12)/c1ccccc1`
Outgoing: 51.6

Incoming: Given `c1ccc(Cn2cc(-c3nc4ccccc4s3)c3cccnc32)cc1` , report its growth on NCI-H226 lung.
Outgoing: 92.4

Incoming: Provide growth, system NCI-H226 lung, entry `COc1cccc(-c2nn(C(C)(C)C)cc2-c2ccnc(NCCCNS(=O)(=O)c3ccc(C)cc3)c2)c1`
Outgoing: 101

Incoming: Would you please give the reported growth of `CCCCC/C(C=C(C#N)C#N)=C/c1ccccc1` with NCI-H226 lung?
Outgoing: 116

---

- System: SK-MEL-2 melanoma
- Assay Comment: NCI-60 one-dose screen, 48 h (100 = growth as untreated, 0 = no growth, -100 = all killed)
- Particulars: 10 µM unless noted
Compounds without any hit were thinned out: in the full panel of roughly 83,000, 20% have a hit.
Item-by-item account of growth
The figure you give is taken to be in %; do not add the unit.

Incoming: Please give measured growth of the following entry: `C(=N/Nc1ncc(-c2cc3cc(-c4ccccc4)ccc3o2)s1)/c1cccs1`
Outgoing: 99.7

Incoming: Please look at this compound and report its growth: `CN1CCN(Cc2ccc(NC(=O)c3cncc(C#Cc4cncn5ccnc45)c3)cc2C(F)(F)F)CC1`
Outgoing: 24.2

Incoming: Provide only the value of recorded growth for `COc1ccc(-c2nc3ccc(-c4nc5ccc(N6CCN(c7ccncc7)CC6)cc5[nH]4)cc3[nH]2)cc1OC`
Outgoing: -17

---

- Test system: OVCAR-5 ovarian
- Assay Comment: NCI-60 one-dose screen, 48 h
- Particulars: 10 µM unless noted
Compounds without any hit were thinned out: in the full panel of roughly 83,000, 20% have a hit. Active and inactive are the calls of the source. Rule for the calls: active = growth percent below 10; inactive = the rest.
Your answer must be one of the following: yes (active), no (inactive)

Answered examples (5):
{"Molecule": "O=c1cc(/C(=C2/C=CC=N2)c2ccc[nH]2)c2cc(Cl)ccc2o1", "Answer Label": "no"}
{"Molecule": "CC(O)CN(CC(C)O)c1ccc2c(c1)Cc1cc([N+](=O)[O-])ccc1-2 (configuration not stated)", "Answer Label": "no"}
{"Molecule": "C=C1C(=O)O[C@H]2[C@H]1CC/C(COC(=O)c1cc3cc(OC)ccc3[nH]1)=C\\CC[C@@]1(C)O[C@@H]21", "Answer Label": "yes"}
{"Molecule": "O=C1/C(=C/C(Cl)=C/c2ccccc2)SC(=S)N1CCc1ccc(O)cc1", "Answer Label": "yes"}
{"Molecule": "O=[N+]([O-])c1ccccc1/C=N\\NC(=S)N/N=C/c1ccccc1[N+](=O)[O-]", "Answer Label": "no"}

Field: next molecule
Incoming: Per the assay record, what outcome was assigned to `O=C(CN1C(=O)/C(=C/c2ccc(Cl)cc2)SC1=S)NCCCN1CCOCC1` ?
Outgoing: no

---

- Tested on: SF-268 CNS
- Assay Comment: NCI-60 one-dose screen, 48 h
- Particulars: 10 µM unless noted
- Description: Cells are grown in 96 well plates and exposed to the test compound for 48 hours. Compounds are tested at a single concentration, which is 10^-5 M for most compounds. The reported endpoint is percent growth (GI% or GIPRCNT), where numbers from 0 - 100% represent growth inhibition, and numbers from -100% - 0 represent cell death. For example, a value of 40 represents 60% growth inhibition. A value of 0 means no net growth occurred over the course of the experiment. […]
The panel holds about 83,000 compounds, 20% with a hit somewhere; the sample as a whole holds those more often. Activity calls are given as the source filed them. Rule for the calls: active = growth percent below 10; inactive = the rest.
API: response.call in T for active, F for inactive

Worked examples follow.
{"Compound String": "CCNC(=O)Oc1ccc(/C(=C(\\C)c2ccc(Cl)cc2)c2ccc(OCCN3CCCCC3)cc2)cc1", "Answer Label": "F"}
{"Compound String": "COc1ccc(-n2nc(C)c3c(Oc4ccc(NC(=O)Nc5c(Cl)cccc5Cl)cc4)ncnc32)cc1", "Answer Label": "F"}
{"Compound String": "Cc1cc(C)nc(SC2=C(Nc3cccc(Cl)c3)C(=O)N(Cc3ccccc3)C2=O)n1", "Answer Label": "F"}
{"Compound String": "CC(=O)O[C@H]1CC[C@]2(C)[C@H]3CC=C4[C@@H]5CC(C)(C)CC[C@]5(C(=O)NCCNCCN)CC[C@@]4(C)[C@]3(C)CC[C@H]2C1(C)C", "Answer Label": "F"}
{"Compound String": "CN(C)CCCNc1c2ccccc2nc2ccccc12", "Answer Label": "F"}
{"Compound String": "N#CCCN=Nc1c(O)[nH]c2ccc(F)cc12", "Answer Label": "F"}
{"Compound String": "OCCN1CCN(c2nc(Nc3ccc(-c4nc5ccccc5[nH]4)cc3)c3cn[nH]c3n2)CC1", "Answer Label": "T"}
{"Compound String": "NC(=NCCCOc1ccc(Cl)cc1)Nc1ccc(C(F)(F)F)cc1", "Answer Label": "F"}

Incoming: Write down the call the test reported for this compound. Item: `N#Cc1nnn(-c2ccc(S(N)(=O)=O)cc2)c1NCC(=O)c1ccccc1`
Outgoing: F

---

- Tested on: MCF7 breast
- Assay Comment: NCI-60 one-dose screen, 48 h
- Particulars: 10 µM unless noted
- Procedure: Growth inhibition of the MCF7 human tumor cell line is measured as a screen for anti-cancer activity. Cells are grown in 96 well plates and exposed to the test compound for 48 hours. Compounds are tested at a single concentration, which is 10^-5 M for most compounds. The reported endpoint is percent growth (GI% or GIPRCNT), where numbers from 0 - 100% represent growth inhibition, and numbers from -100% - 0 represent cell death. For example, a value of 40 represents 60% growth inhibition. […]
This is part of a sample that, as a whole, favours compounds with a hit. Of some 83,000 tested, about 20% had one in any assay. Activity calls are given as the source filed them. Rule for the calls: active = growth percent below 10; inactive = the rest.
Would you mind answering with one of these outcomes? T for active, F for inactive

{"Compound": "O=C1c2cc3c(cc2-c2c1c1ccc(Cl)cc1c(=O)n2CCCN1CCOCC1)OCO3", "Answer Label": "F"}
{"Compound": "COc1ccc(-c2cc(Nc3ccnc(N4CCOCC4)n3)on2)cc1", "Answer Label": "F"}
{"Compound": "CCN1CCN(c2nc(NCCCNc3ccnc4cc(Cl)ccc34)c3ccccc3n2)CC1", "Answer Label": "F"}

Incoming: Give the logged outcome of this assay for the following compound: `Cc1nn(-c2cc(=O)[nH]c3ccc(Cl)cc23)c(N)c1C#N`
Outgoing: F

Incoming: Dear all, I need the recorded test outcome for `CCOC(=O)n1cc(-c2nonc2-c2cn(C)c3ncccc23)c2cc(F)ccc21` , thank you.
Outgoing: F

Incoming: Hi team, can someone confirm the assay call for `COc1ccc2nc(NC(=O)CSc3nnc4n3S(=O)(=O)c3ccccc3N4c3ccccc3)sc2c1` ?
Outgoing: F

Incoming: Outcome? CCNc1ncnc2c1cnn2C1CCCO1 (stereo not given)
Outgoing: F

Incoming: // outcome(item) with item = `O=C1CC[C@H](c2ccc(O)c3c2C(=O)[C@@H]2O[C@@H]2C3=O)c2cccc(O)c21`
Outgoing: T

Incoming: What classification did `N#C/C(=C\c1ccc(-c2cc(C(F)(F)F)ccc2Cl)o1)c1nc(-c2ccco2)cs1` end up with in this test?
Outgoing: F

Incoming: Hi, sorry to bother you, what did the test record for `O=C(Nc1ccc(Cl)cc1)c1cc2cc(F)ccc2cc1O` ?
Outgoing: T

---

- Test system: NCI-H460 lung
- Assay Comment: NCI-60 one-dose screen, 48 h
- Particulars: 10 µM unless noted
- Method: Growth inhibition of the NCI-H460 human Non-Small Cell Lung tumor cell line is measured as a screen for anti-cancer activity. Cells are grown in 96 well plates and exposed to the test compound for 48 hours. Compounds are tested at a single concentration, which is 10^-5 M for most compounds. The reported endpoint is percent growth (GI% or GIPRCNT), where numbers from 0 - 100% represent growth inhibition, and numbers from -100% - 0 represent cell death. […]
The panel holds about 83,000 compounds, 20% with a hit somewhere; the sample as a whole holds those more often. The source made the active and inactive calls. How the source made its calls: active means growth percent below 10; inactive means the rest.
Mark one answer only. Choices: active, inactive

Please review the following examples before continuing.
{"Compound String": "CC/C=C\\C[C@H]1C/C=C2/C(=O)C=C[C@H]2C/C=C\\CCCC(=O)O1", "Answer Label": "inactive"}
{"Compound String": "O=C(COc1ccc(-c2nc3cc(Cl)c(Cl)cc3[nH]2)cc1)N=Nc1c(O)[nH]c2ccccc12", "Answer Label": "active"}

Incoming: Give the logged outcome of this assay for the following compound: `CN(C)c1ccc(N=Nc2ccccn2)c(O)c1`
Outgoing: active

Incoming: Answer briefly: the call reported for `Cn1cc(C(=O)c2nc(-c3c[nH]c4ccc(F)cc34)no2)c2cc(F)ccc21` in this assay.
Outgoing: inactive

Incoming: Dear all, I need the recorded test outcome for `C=C(C)[C@@H]1CC[C@]2(C(N)=O)CC[C@]3(C)[C@H](CC[C@@H]4[C@@]5(C)C/C(=C/c6ccco6)C(=O)C(C)(C)[C@@H]5CC[C@]43C)[C@@H]12` , thank you.
Outgoing: inactive

Incoming: So what was the verdict on `c1ccc(-c2c(-c3ccccc3)[n+](Cc3ccc4ccccc4c3)c(-c3ccc(-c4nc5ccccc5s4)cc3)n2Cc2ccc3ccccc3c2)cc1` in this test?
Outgoing: active

Incoming: Identify the outcome logged in this assay for the compound shown: `CC(=O)c1nc2ccccc2n1CC(=O)c1cccc(Cl)c1`
Outgoing: active

Incoming: Entry `CN(C)[C@@H]1C(=O)C(C(=O)NCc2nc3[nH]cnc(=S)c3[nH]2)=C(O)[C@@]2(O)C(=O)C3=C(O)c4c(O)cccc4[C@@](C)(O)[C@H]3C[C@@H]12` : call = ?
Outgoing: inactive
